Target: CDK2/Cyclin A2 (Homo sapiens)

ITEM SMILES	SYSTEM	IC50
Cc1ccccc1Nc1nc(NCCc2ccccn2)ncc1Cl	CDK2/Cyclin A2 (Homo sapiens)	> 10 µM
CCc1ccc(Nc2nc(Nc3ccc(N4CCN(C)CC4)cn3)ncc2Cl)cc1	CDK2/Cyclin A2 (Homo sapiens)	> 10 µM
CN1CCN(c2ccc(Nc3ncc(Cl)c(NCc4ccc(C(F)(F)F)cc4)n3)nc2)CC1	CDK2/Cyclin A2 (Homo sapiens)	> 10 µM
Cc1ccccc1Nc1nc(NCCc2cccnc2)ncc1Cl	CDK2/Cyclin A2 (Homo sapiens)	> 10 µM
CCN1CCN(c2ccc(Nc3ncc(Cl)c(Nc4ccccc4C)n3)cc2)CC1	CDK2/Cyclin A2 (Homo sapiens)	0.718 µM
Cc1ccccc1Nc1nc(Nc2ccccn2)ncc1Cl	CDK2/Cyclin A2 (Homo sapiens)	0.643 µM
CN1CCN(c2ccc(Nc3ncc(Cl)c(NCCc4ccccc4F)n3)nc2)CC1	CDK2/Cyclin A2 (Homo sapiens)	> 10 µM
Cc1ccccc1Nc1nc(Nc2ccc(N3CCOCC3)cn2)ncc1Cl	CDK2/Cyclin A2 (Homo sapiens)	> 10 µM
Cc1ccccc1Nc1nc(Nc2cc(Cl)ccn2)ncc1Cl	CDK2/Cyclin A2 (Homo sapiens)	> 10 µM
COc1ccc(Nc2nc(Nc3ccc(N4CCN(C)CC4)cn3)ncc2Cl)cc1	CDK2/Cyclin A2 (Homo sapiens)	6.11 µM
Cc1ccccc1Nc1nc(Nc2ccncc2)ncc1Cl	CDK2/Cyclin A2 (Homo sapiens)	6.23 µM
